- Tested on: vertebral artery
- protocol.description: Blood flow and blood vessel resistance of vertebral artery in anesthetized dogs
- Assay type: in vivo, dog
- condition.context: Canis lupus familiaris, iv; 0.1 mg/kg; % of value before administration, average ± standard error; read-out: Vertebral artery vessel resistance, percentage compared with control
response vs control in vivo at 0.1 mg/kg values for the compounds below.
Please respond with the number in % and leave the unit unwritten.

COC(=O)C1=C(C)N=C(C)N(C(=O)OC)C1c1cccc([N+](=O)[O-])c1 (stereo not shown) | 67
CCOC(=O)C1=C(C)N=C(C)N(C(=O)OCC)C1c1ccccc1[N+](=O)[O-] (stereo not shown) | 41
COC(=O)C1=C(C)N=C(C)N(C(=O)OC)C1c1ccccc1[N+](=O)[O-] (stereo not shown) | 58

The compound CCOC(=O)C1=C(C)N=C(C)N(C(=O)OCC)C1c1cccc([N+](=O)[O-])c1 (stereo not shown) , when measured on vertebral artery, yielded response vs control in vivo at 0.1 mg/kg of 47
